The following molecules are shown together with reported half-life values.
- experimental.details: Half life in rat
- Format: ADME, organism-based
- condition.description: in vivo
// units = h; emit number, no label

[
  {
    "smiles.text": "CC(C)(O)c1ccn2c(-c3ccc(F)c(-c4cccnc4)c3)cnc2n1",
    "half-life [h]": 1.7
  }
]

With those in mind, consider the next molecule.
# input Which half-life is reported for this molecule? N#Cc1cc(F)ccc1-c1cc(-c2cnc3nc(C(F)(F)F)ccn23)ccc1F
# output 7.3

---

The following molecules are shown together with reported clearance values.
- experimental.details: Plasma clearance in dog
- Assay type: ADME, organism-based, Canis lupus familiaris
// units = mL/min/kg; emit number, no label

Here are 2 molecules together with their reported answers.
[
  {
    "smiles.text": "CC(C)(O)c1ccn2c(-c3ccc(F)c(-c4cccnc4)c3)cnc2n1",
    "u": "mL/min/kg",
    "clearance": 8.2
  },
  {
    "smiles.text": "Cc1ccn2c(-c3cccc(-c4ccccc4C#N)c3)cnc2n1",
    "u": "mL/min/kg",
    "clearance": 41
  }
]

With those in mind, consider the next molecule.
# input Which clearance is reported for this molecule? N#Cc1cc(F)ccc1-c1cc(-c2cnc3nc(C(F)(F)F)ccn23)ccc1F
# output 2.9

---

- experimental.details: Plasma clearance in rhesus monkey
- Format: ADME, organism-based, Macaca mulatta
measured.endpoint: clearance (mL/min/kg)
// units = mL/min/kg; emit number, no label

# input Which clearance is reported for this compound? N#Cc1cc(F)ccc1-c1cc(-c2cnc3nc(C(F)(F)F)ccn23)ccc1F
# output 3

---

- tested.system: GABA-A receptor; alpha-1/beta-3/gamma-2 (Homo sapiens, UniProt P14867+P18507+P28472)
- Sequence (P14867 whole entry, one chain of several): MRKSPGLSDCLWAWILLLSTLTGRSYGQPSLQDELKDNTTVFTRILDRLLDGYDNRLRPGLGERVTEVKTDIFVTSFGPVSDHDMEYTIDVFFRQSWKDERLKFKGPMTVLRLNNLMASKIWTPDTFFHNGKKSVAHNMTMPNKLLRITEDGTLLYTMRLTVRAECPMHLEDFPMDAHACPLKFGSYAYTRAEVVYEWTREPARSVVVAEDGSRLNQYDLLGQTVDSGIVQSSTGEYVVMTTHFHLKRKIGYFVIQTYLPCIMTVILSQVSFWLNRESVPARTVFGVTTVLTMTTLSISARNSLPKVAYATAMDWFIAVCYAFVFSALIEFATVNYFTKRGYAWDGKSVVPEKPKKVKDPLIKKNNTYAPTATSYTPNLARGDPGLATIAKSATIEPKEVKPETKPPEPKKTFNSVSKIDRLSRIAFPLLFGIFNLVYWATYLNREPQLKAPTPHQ
- experimental.details: Displacement of [3H]-Ro15-1788 from human recombinant GABAA alpha1 in combination with beta-3-gamma-2 expressed in L(tk-) cells
The following compounds are shown together with reported Ki values.
// units = nM; emit number, no label

Here are 8 compounds together with their reported answers.
[
  {
    "smiles.text": "c1ccc(-c2nnc3c4c(c(OCc5ccccn5)nn23)C2CCC4CC2)cc1",
    "tested.system": "GABA-A receptor; alpha-1/beta-3/gamma-2 (Homo sapiens, UniProt P14867+P18507+P28472)",
    "Ki [nM]": 56
  },
  {
    "smiles.text": "CCn1ncnc1COc1nn2c(-c3ccccc3F)nnc2cc1C(C)(C)C",
    "tested.system": "GABA-A receptor; alpha-1/beta-3/gamma-2 (Homo sapiens, UniProt P14867+P18507+P28472)",
    "Ki [nM]": 0.26
  },
  {
    "smiles.text": "N#Cc1c(F)cccc1-c1cc(-c2cnc3nc(C(F)(F)F)ccn23)ccc1F",
    "tested.system": "GABA-A receptor; alpha-1/beta-3/gamma-2 (Homo sapiens, UniProt P14867+P18507+P28472)",
    "Ki [nM]": 4.6
  },
  {
    "smiles.text": "N#Cc1cc(F)ccc1-c1cc(-c2cnc3nc(C(F)(F)F)ccn23)ccc1F",
    "tested.system": "GABA-A receptor; alpha-1/beta-3/gamma-2 (Homo sapiens, UniProt P14867+P18507+P28472)",
    "Ki [nM]": 1.2
  },
  {
    "smiles.text": "N#Cc1ccccc1-c1cc(F)cc(-c2cnc3nc(C(F)(F)F)ccn23)c1",
    "tested.system": "GABA-A receptor; alpha-1/beta-3/gamma-2 (Homo sapiens, UniProt P14867+P18507+P28472)",
    "Ki [nM]": 5.3
  },
  {
    "smiles.text": "CC(C)(O)c1ccn2c(-c3ccc(F)c(-c4cccnc4)c3)cnc2n1",
    "tested.system": "GABA-A receptor; alpha-1/beta-3/gamma-2 (Homo sapiens, UniProt P14867+P18507+P28472)",
    "Ki [nM]": 0.85
  },
  {
    "smiles.text": "N#Cc1ccccc1-c1cc(-c2cnc3nc(C(F)(F)F)ccn23)ccc1F",
    "tested.system": "GABA-A receptor; alpha-1/beta-3/gamma-2 (Homo sapiens, UniProt P14867+P18507+P28472)",
    "Ki [nM]": 0.5
  },
  {
    "smiles.text": "N#Cc1cccc(F)c1-c1cc(-c2cnc3nc(C(F)(F)F)ccn23)ccc1F",
    "tested.system": "GABA-A receptor; alpha-1/beta-3/gamma-2 (Homo sapiens, UniProt P14867+P18507+P28472)",
    "Ki [nM]": 0.87
  }
]

# input Which Ki is reported for this compound? N#Cc1ccccc1-c1cccc(-c2cnc3nc(C(F)(F)F)ccn23)c1
# output 0.66

# input Which Ki is reported for this compound? CC(C)(O)c1ccn2c(-c3ccc(F)c(-c4ccc(F)cc4C#N)c3)cnc2n1
# output 2.7

---

The following compounds are shown together with reported Ki values.
- tested.system: GABA-A receptor; alpha-2/beta-3/gamma-2 (Homo sapiens, UniProt P18507+P28472+P47869)
- Sequence (P18507 whole entry): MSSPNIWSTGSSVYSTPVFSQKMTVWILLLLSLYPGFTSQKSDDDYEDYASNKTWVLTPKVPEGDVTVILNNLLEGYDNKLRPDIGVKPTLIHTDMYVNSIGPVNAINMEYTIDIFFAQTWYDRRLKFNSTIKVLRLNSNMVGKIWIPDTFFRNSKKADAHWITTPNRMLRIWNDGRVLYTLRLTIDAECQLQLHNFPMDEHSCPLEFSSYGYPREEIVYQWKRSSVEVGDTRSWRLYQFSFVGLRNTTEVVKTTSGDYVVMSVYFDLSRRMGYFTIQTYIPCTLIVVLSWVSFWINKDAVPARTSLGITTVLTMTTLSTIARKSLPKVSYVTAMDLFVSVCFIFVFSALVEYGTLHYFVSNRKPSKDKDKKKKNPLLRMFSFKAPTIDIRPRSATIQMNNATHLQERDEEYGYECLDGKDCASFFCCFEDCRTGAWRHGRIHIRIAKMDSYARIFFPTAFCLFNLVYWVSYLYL
- Sequence (P28472 whole entry): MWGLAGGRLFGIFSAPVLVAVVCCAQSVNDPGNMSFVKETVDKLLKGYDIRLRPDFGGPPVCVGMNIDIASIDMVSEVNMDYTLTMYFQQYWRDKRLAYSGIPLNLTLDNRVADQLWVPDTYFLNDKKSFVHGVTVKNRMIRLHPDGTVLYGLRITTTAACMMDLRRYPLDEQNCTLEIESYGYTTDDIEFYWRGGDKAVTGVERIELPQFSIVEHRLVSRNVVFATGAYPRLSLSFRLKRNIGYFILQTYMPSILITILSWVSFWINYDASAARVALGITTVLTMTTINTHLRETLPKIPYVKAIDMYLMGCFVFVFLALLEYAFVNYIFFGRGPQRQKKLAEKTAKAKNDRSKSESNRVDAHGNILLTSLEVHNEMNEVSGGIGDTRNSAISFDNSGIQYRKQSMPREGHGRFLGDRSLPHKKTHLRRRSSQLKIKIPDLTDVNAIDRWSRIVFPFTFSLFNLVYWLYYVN
- Sequence (P47869 whole entry): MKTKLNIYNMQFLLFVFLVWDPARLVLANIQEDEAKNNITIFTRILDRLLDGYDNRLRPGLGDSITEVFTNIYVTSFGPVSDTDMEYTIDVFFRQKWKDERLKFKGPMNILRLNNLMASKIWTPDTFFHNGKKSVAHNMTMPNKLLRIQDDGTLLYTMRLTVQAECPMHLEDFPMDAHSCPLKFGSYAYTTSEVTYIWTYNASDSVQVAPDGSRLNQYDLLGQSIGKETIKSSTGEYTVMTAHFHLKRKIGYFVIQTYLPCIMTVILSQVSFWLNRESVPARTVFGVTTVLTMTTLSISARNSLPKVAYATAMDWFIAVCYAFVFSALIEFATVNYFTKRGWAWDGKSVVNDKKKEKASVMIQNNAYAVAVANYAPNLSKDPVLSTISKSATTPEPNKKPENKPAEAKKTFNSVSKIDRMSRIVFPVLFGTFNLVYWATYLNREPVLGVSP
- experimental.details: Displacement of [3H]-Ro15-1788 from human recombinant GABAA alpha2 in combination with beta3gamma2 expressed in L(tk-) cells
// units = nM; emit number, no label

[
  {
    "smiles.text": "Cc1ccn2c(-c3cccc(-c4ccccc4C#N)c3)cnc2n1",
    "u": "nM",
    "readout.number": 0.78
  },
  {
    "smiles.text": "CC(C)(O)c1ccn2c(-c3ccc(F)c(-c4ccc(F)cc4C#N)c3)cnc2n1",
    "u": "nM",
    "readout.number": 3.3
  },
  {
    "smiles.text": "N#Cc1cc(F)ccc1-c1cc(-c2cnc3nc(C(F)(F)F)ccn23)ccc1F",
    "u": "nM",
    "readout.number": 1
  },
  {
    "smiles.text": "c1ccc(-c2nnc3c4c(c(OCc5ccccn5)nn23)C2CCC4CC2)cc1",
    "u": "nM",
    "readout.number": 21.7
  },
  {
    "smiles.text": "Cn1ncnc1COc1nn2c(-c3cc(F)ccc3F)nnc2cc1C(C)(C)C",
    "u": "nM",
    "readout.number": 0.7
  },
  {
    "smiles.text": "CCn1ncnc1COc1nn2c(-c3ccccc3F)nnc2cc1C(C)(C)C",
    "u": "nM",
    "readout.number": 0.3
  },
  {
    "smiles.text": "N#Cc1ccccc1-c1cc(-c2cnc3nc(C(F)(F)F)ccn23)ccc1F",
    "u": "nM",
    "readout.number": 0.52
  },
  {
    "smiles.text": "CCO/N=C(\\C)c1ccc2c(c1)ncn2-c1cccc(-c2cccnc2)c1",
    "u": "nM",
    "readout.number": 13.1
  }
]

With those in mind, consider the next compound.
# input Which Ki is reported for this compound? CC(C)(O)c1ccn2c(-c3ccc(F)c(-c4cccnc4)c3)cnc2n1
# output 3.7

Source of measurements: ChEMBL document CHEMBL1148587
